Each recorded value in this set is attributed to the supplement of paper PMC8728848.

// reported glycan array binding signal (z-score) for each item listed
# testedOn: Gal(b1-3)GlcNAc(b1-3)Gal(b1-4)Glc
# assay: glycan array binding signal (z-score within array); higher = stronger binding
# conditionContext: glycan notation: IUPAC condensed, linker removed
This excerpt belongs to a sample that is enriched for the strongest signals.
Provide a numeric answer; units are not to be included.

// solved cases for glycan array binding signal (z-score) follow
INSERT INTO assay_data (binder, measurename, readoutnumber) VALUES
  ('XTP3-B-MRH2 (Homo sapiens), Q96DZ1 (protein) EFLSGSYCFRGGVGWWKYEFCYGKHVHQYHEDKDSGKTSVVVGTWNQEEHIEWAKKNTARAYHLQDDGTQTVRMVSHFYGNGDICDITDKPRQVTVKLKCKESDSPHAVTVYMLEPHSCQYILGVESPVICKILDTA', 'glycan array binding signal (z-score)', 0.052),
  ('CLEC5A (Homo sapiens), Q9NY25 (protein) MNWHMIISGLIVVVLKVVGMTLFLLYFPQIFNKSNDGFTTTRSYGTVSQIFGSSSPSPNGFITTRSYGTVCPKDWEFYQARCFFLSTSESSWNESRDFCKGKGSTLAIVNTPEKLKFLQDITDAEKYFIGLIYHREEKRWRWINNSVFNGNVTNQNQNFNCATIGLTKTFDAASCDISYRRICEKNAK', 'glycan array binding signal (z-score)', -0.282);

Below: the item to evaluate.
Query: glycan array binding signal (z-score); subject: LSECtin (Homo sapiens), Q6UXB4 (protein) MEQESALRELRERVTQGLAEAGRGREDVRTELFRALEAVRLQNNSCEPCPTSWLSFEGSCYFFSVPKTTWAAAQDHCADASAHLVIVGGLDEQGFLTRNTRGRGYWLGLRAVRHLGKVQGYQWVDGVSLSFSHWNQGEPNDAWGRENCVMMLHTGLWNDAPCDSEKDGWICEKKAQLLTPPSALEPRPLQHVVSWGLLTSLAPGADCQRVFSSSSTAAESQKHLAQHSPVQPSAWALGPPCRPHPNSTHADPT -0.295
